Origin of the recorded values: ChEMBL document CHEMBL1154782

tested on: Candida albicans; assay: Antifungal activity against Candida albicans ATCC 10231 after 15 to 18 hrs under aerobic condition by modified broth microdilution method; type: functional
Where a SMILES comes first, the peptide text is derived from it. The star is where a group is joined. Boc = CC(C)(C)OC(=O)*; NHBn = c1ccc(CN*)cc1
valueType: MIC

Some solved entries appear below for comparison.
compound | MIC
CC(C)(C)OC(=O)N[C@@H](Cc1c[nH]c(C2CCC2)n1)C(=O)N[C@@H](CCCNC(=N)N)C(=O)NCc1ccccc1 | > 200 µg/mL
N=C(N)NCCC[C@H](NC(=O)[C@@H](N)Cc1c[nH]c(C2CCCCC2)n1)C(=O)NCc1ccccc1 | 200 µg/mL
N[C@@H](Cc1c[nH]c2ccccc12)C(=O)N[C@@H](Cc1c[nH]c(C2CCCCC2)n1)C(=O)NCc1ccccc1 | 100 µg/mL
CC(C)(C)OC(=O)N[C@@H](Cc1c[nH]c2ccccc12)C(=O)N[C@@H](Cc1c[nH]c(C2CCC2)n1)C(=O)NCc1ccccc1 | 200 µg/mL
CC(C)(C)OC(=O)N[C@@H](Cc1c[nH]cn1)C(=O)N[C@@H](CCCNC(=N)N)C(=O)NCc1ccccc1 (Boc-His-Arg-NHBn) | > 200 µg/mL

Next compound, MIC to be filled in.
Form field, MIC with Candida albicans, item COC(=O)[C@H](Cc1c[nH]c(C2CCC2)n1)NC(=O)[C@H](Cc1c[nH]c2ccccc12)NC(=O)OC(C)(C)C : > 200 µg/mL

---

Measured MIC accompanies every entry in the list below.
system: Klebsiella pneumoniae; experiment: Antibacterial activity against Klebsiella pneumoniae ATCC 700603 after 15 to 18 hrs under aerobic condition by modified broth microdilution method; format: functional

Example compounds with recorded MIC:
lineNotation | MIC
N[C@@H](Cc1c[nH]c2ccccc12)C(=O)N[C@@H](Cc1c[nH]c(C2CCCCC2)n1)C(=O)NCc1ccccc1 | 50 µg/mL
COC(=O)[C@H](CCCNC(=N)N)NC(=O)[C@H](Cc1c[nH]c(C(C)(C)C)n1)NC(=O)OC(C)(C)C | > 200 µg/mL
COC(=O)[C@H](CCCNC(=N)N)NC(=O)[C@@H](N)Cc1c[nH]c(C2CCCCC2)n1 | > 200 µg/mL
COC(=O)[C@H](Cc1c[nH]c(C(C)(C)C)n1)NC(=O)[C@@H](N)Cc1c[nH]c2ccccc12 | > 200 µg/mL
CC(C)(C)c1nc(C[C@H](N)C(=O)N[C@@H](CCCNC(=N)N)C(=O)NCc2ccccc2)c[nH]1 | > 200 µg/mL
CC(C)(C)OC(=O)N[C@@H](Cc1c[nH]c2ccccc12)C(=O)N[C@@H](Cc1c[nH]c(C2CCCCC2)n1)C(=O)NCc1ccccc1 | > 200 µg/mL

Measured MIC (Klebsiella pneumoniae), entry N[C@@H](Cc1c[nH]c2ccccc12)C(=O)N[C@@H](Cc1c[nH]c(C23CC4CC(CC(C4)C2)C3)n1)C(=O)NCc1ccccc1 : 200 µg/mL

Response field MIC (Klebsiella pneumoniae) for item CC(C)(C)OC(=O)N[C@@H](Cc1c[nH]c2ccccc12)C(=O)N[C@@H](Cc1c[nH]c(C(C)(C)C)n1)C(=O)NCc1ccccc1 : > 200 µg/mL

Record CC(C)(C)OC(=O)N[C@@H](Cc1c[nH]c2ccccc12)C(=O)N[C@@H](Cc1c[nH]c(C2CCC2)n1)C(=O)NCc1ccccc1 has Klebsiella pneumoniae MIC equal to > 200 µg/mL

Record COC(=O)[C@H](Cc1c[nH]c(C(C)C)n1)NC(=O)[C@@H](N)Cc1c[nH]c2ccccc12 / Klebsiella pneumoniae, MIC recorded as > 200 µg/mL

Field MIC (system: Klebsiella pneumoniae) for entry N=C(N)NCCC[C@H](NC(=O)[C@@H](N)Cc1c[nH]c(C2CCC2)n1)C(=O)NCc1ccccc1 = > 200 µg/mL

Observed MIC on Klebsiella pneumoniae, entry COC(=O)[C@H](CCCNC(=N)N)NC(=O)[C@@H](N)Cc1c[nH]c(C2CCC2)n1 , equals > 200 µg/mL

Value (MIC, Klebsiella pneumoniae) for record N=C(N)NCCC[C@H](NC(=O)[C@@H](N)Cc1c[nH]c(C23CC4CC(CC(C4)C2)C3)n1)C(=O)NCc1ccccc1 = 100 µg/mL

Record CC(C)(C)OC(=O)N[C@@H](Cc1c[nH]c(C2CCCCC2)n1)C(=O)N[C@@H](CCCNC(=N)N)C(=O)NCc1ccccc1 / Klebsiella pneumoniae, MIC recorded as > 200 µg/mL

The value of MIC recorded for COC(=O)[C@H](CCCNC(=N)N)NC(=O)[C@H](Cc1c[nH]c(C(C)C)n1)NC(=O)OC(C)(C)C when tested on Klebsiella pneumoniae reads > 200 µg/mL

COC(=O)[C@H](CCCNC(=N)N)NC(=O)[C@@H](N)Cc1c[nH]c(C(C)(C)C)n1 on Klebsiella pneumoniae gives MIC = 200 µg/mL
